- Target or system: Human SSAO (Homo sapiens)
- Construct: Human or mice adipose tissue homogenates, used as a source of SSAO activity; from tissue; host or cells: human adipose tissue homogenate
- Sequence (Q16853 1-763): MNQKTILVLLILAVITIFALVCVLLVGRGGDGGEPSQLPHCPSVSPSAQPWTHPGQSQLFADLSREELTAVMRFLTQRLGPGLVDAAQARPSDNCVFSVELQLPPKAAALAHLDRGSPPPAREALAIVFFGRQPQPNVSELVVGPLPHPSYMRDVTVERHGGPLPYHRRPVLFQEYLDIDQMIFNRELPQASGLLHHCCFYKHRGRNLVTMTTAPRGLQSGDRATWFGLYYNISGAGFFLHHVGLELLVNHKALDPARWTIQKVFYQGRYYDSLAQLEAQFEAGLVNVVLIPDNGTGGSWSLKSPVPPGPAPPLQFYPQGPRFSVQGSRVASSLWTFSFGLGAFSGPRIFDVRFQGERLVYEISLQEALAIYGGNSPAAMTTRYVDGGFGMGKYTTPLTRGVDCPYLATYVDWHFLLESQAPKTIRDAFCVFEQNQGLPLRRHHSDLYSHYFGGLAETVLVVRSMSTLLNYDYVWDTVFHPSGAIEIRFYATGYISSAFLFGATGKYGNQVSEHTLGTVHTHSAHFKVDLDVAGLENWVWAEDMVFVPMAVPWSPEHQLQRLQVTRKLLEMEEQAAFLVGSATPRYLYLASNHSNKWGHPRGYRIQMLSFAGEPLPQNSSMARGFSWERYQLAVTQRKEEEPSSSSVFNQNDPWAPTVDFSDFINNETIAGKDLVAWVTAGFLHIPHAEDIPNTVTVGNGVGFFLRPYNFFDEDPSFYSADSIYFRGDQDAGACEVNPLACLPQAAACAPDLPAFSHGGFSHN
- Experiment description: SSAO activity determination (Amplex Red/HRP detection of H2O2 from benzylamine oxidation)
- Format: biochemical
- Condition info: human adipose tissue homogenate, benzylamine substrate, 37° C., 20 min preincubation
Property label: IC50

Task: What value of measured IC50 is listed for Cc1[nH]c2ccccc2c1CC(=O)NCC(=O)NO ?
Result: 0.033 µM

Cited source for all entries: patent US20080269282A1
